tested on: RXF 393; assay: NCI tumour cell line growth inhibition, 48 h
Structures can show the parent of a compound that is named as a salt. The source made the active and inactive calls. No stated cut-off is given here; in the data, active = GI50 up to about 1.1 µM and inactive = higher.
EXPERIMENTAL_READOUT: GI50

Below, 5 compounds whose answers are already recorded.
CN(/N=C\c1ccc2ccccc2c1)C1=NCCCCN1 ... 12.5 µM (inactive)
CC(=O)N(O)CCCCCNC(=O)CCC(=O)N(O)CCCCCNC(=O)CCC(=O)N(O)CCCCCN [DEFEROXAMINE HYDROCHLORIDE] ... 57.4 µM (inactive)
COc1ccc(OC)c2cc(C3(C)SCCCS3)ccc12 ... 20.5 µM (inactive)
COc1ccc2c(c1O)[C@@]13C=C(O)C(=O)C=C1[C@@H](C2)N(C)CC3 ... 48.1 µM (inactive)
Clc1ccc2c(SCC3CO3)c3ccccc3nc2c1 (stereo not given) ... 2.66 µM (inactive)

Consider `COc1cccc2cc(C(C)=O)c(=O)oc12` . Its measured GI50 is > 100 µM (inactive)

Consider `COc1cc(C)c(/C=C2/N=C(c3ccccc3)OC2=O)c([N+](=O)[O-])c1OC` . Its measured GI50 is > 100 µM (inactive)

Consider NCCCCC(N)C(=O)NCCNc1ccc(NCCNC(=O)C(N)CCCCN)c2c1C(=O)c1ccccc1C2=O (stereo not given) . Its measured GI50 is 9.86 µM (inactive)

Consider COC(=O)CC1NC(=O)[C@@H]1C(C)O (stereo not given in full) . Its measured GI50 is > 100 µM (inactive)

Consider OC1c2ccccc2CCC1CN1CCN(CCOC(c2ccc(F)cc2)c2ccc(F)cc2)CC1 (stereo not given) . Its measured GI50 is 6.18 µM (inactive)

====

tested on: M14; experiment: NCI tumour cell line growth inhibition, 48 h
Activity calls are given as the source filed them. Rule as the data show it: active = GI50 up to about 1.1 µM and inactive = higher.
The entries below come with measured GI50 values attached.

Clc1cccc(N2CCN(CCN3CCc4c([nH]c5ccccc45)C3c3cccnc3)CC2)c1 (stereo not drawn) ... > 79.4 µM (inactive)
C[C@H]1CCC2C(OC(=O)[C@@H]2CN(C)C)[C@]2(C)C(=O)C=CC12O (stereo partly drawn) ... 4.06 µM (inactive)

Consider `CCCCNC(=O)C1=C(C)NC(C)=C(C(=O)NCCCC)C1` . Its measured GI50 is > 100 µM (inactive)

====

tested on: BT-549; test: NCI tumour cell line growth inhibition, 48 h
Structures can show the parent of a compound that is named as a salt. The source made the active and inactive calls. Rule as the data show it: active = GI50 up to about 1.1 µM and inactive = higher.
Output constraint: value belongs to active, inactive

COc1ccc2c(c1)CC1(O)COc3cc(OC)ccc3C1O2 (stereo unspecified) ... inactive
COC(=O)Nc1nc2cc(C(=O)c3cccs3)ccc2[nH]1 ... active
Cc1cc2c(cc1Cl)SC(NNc1ccc([N+](=O)[O-])cc1)=NS2(=O)=O ... inactive

Prompt: What call does the record list for [O-][S+]1CC[S+]([O-])CC[S+]([O-])CC1 (stereo unspecified) ?
Completion: inactive

Prompt: What call does the record list for `O=C(CN1CCN(c2ccccn2)CC1)N1CCCn2c1nc1ccccc1c2=O` ?
Completion: inactive

Prompt: What call does the record list for `O=c1[nH]nc(NCc2ccccc2)c2nnn(Cc3ccccc3)c12` ?
Completion: inactive

Prompt: What call does the record list for `OCCN1CN(c2nc(N3CN(CCO)C3)nc(N3CN(CCO)C3)n2)C1` ?
Completion: inactive

Prompt: What call does the record list for NC(CCOCCP(=O)(O)O)C(=O)O (stereo unspecified) ?
Completion: inactive

Prompt: What call does the record list for `O=c1oc2ccc(Cl)cc2cc1-c1cn2ccccc2n1` ?
Completion: inactive

Prompt: What call does the record list for Cc1ccc(S(=O)(=O)NC(=O)NC(Cc2ccc(O)cc2)C(=O)O)cc1 (stereo unspecified) ?
Completion: inactive

Prompt: What call does the record list for `COc1ccc(/N=C2\C(=S)N(c3ccc(OC)cc3)/C(=N/S(=O)(=O)c3ccccc3)N2c2ccccc2)cc1` ?
Completion: inactive

Prompt: What call does the record list for COc1ccc(OC)c(C2Cc3cnc4nc(N)nc(N)c4c3C2)c1 (stereo unspecified) ?
Completion: inactive

Prompt: What call does the record list for `O=C1/C(=C\c2ccco2)Oc2ccccc21` ?
Completion: inactive

Prompt: What call does the record list for NCCCCNCCCN [SPERMIDINE TRIHYDROCHLORIDE] ?
Completion: inactive

Prompt: What call does the record list for C#CCCOC(=O)CC1=C(C)/C(=C/c2ccc([S+](C)[O-])cc2)c2ccc(F)cc21 (stereo unspecified) ?
Completion: inactive

Prompt: What call does the record list for `CSc1nc(SC)c2c(C)cn(Cc3ccccc3)c2n1` ?
Completion: inactive

Prompt: What call does the record list for `NNc1ccccc1Cl` ?
Completion: inactive

Prompt: What call does the record list for CCCCCCCCCCCCCCCC(=O)OC(COC(C)=O)CO[PH](=O)O (stereo unspecified) ?
Completion: inactive

Prompt: What call does the record list for `CSc1nc(C)cc(Nc2ccc(O)c(CN3CCOCC3)c2)n1` ?
Completion: inactive

Prompt: What call does the record list for C[n+]1c2ccccc2c(CNC(CCC(N)=O)C(=O)O)c2ccccc21 (stereo unspecified) ?
Completion: inactive

Prompt: What call does the record list for `CNC(=O)c1nc[nH]c1/N=N/N(C)N` ?
Completion: inactive

Prompt: What call does the record list for `COc1cc2c(c(O)c1OC)C(=O)[C@@H]1CCC(=O)N1C2` ?
Completion: inactive

====

test system: HCT-15
The entries below come with measured log10 GI50 values attached.
Transform log10 | Measure GI50 | Unit µM

O=C(CC(C(=O)c1cccs1)c1ccsc1)c1ccccc1 (stereo not drawn) ... 1.68
COC(=O)C(CC(=O)c1c[nH]c2ccccc12)c1c[nH]c2ccccc12 (stereo not drawn) ... 1.21
Cc1ccc(CC2(OCCN(C)C)CCC(C(C)(C)C)CC2)cc1 (stereo not drawn) ... 0.67

Consider `COc1cc2nc(-c3cccs3)nc(Nc3cccc([N+](=O)[O-])c3)c2cc1OC` . Its measured log10 GI50 is 1.22

Consider `CC(C)(C)OC(=O)c1cnc(Cl)cn1` . Its measured log10 GI50 is 1.07

Consider `Cc1ccc(/C=N/Nc2cc(C)c3cccc(C)c3n2)s1` . Its measured log10 GI50 is 0.57

====

tested on: RPMI-8226; assay: NCI tumour cell line growth inhibition, 48 h
Active and inactive are the calls of the source. Cut-off read from the data, not from the text of the source: active = GI50 up to about 1.1 µM and inactive = higher.
EXPERIMENTAL_READOUT: GI50

O=C1N[C@H](C(=O)O)[C@@H](c2ccc(OCc3ccccc3)cc2)O1 ... 11.6 µM (inactive)

Entry CCOC(=O)[C@@]12C3C=CC(CC3)[C@]1(C(=O)c1ccccc1)C(=O)C(=O)N2c1ccccc1 (stereo partly drawn) , RPMI-8226 data, GI50 value: > 100 µM (inactive)

Entry `Cc1ccc(S(=O)(=O)/N=C2/N(C)CCCS2(=O)=O)cc1` , RPMI-8226 data, GI50 value: > 100 µM (inactive)

====

The entries below come with measured GI50 values attached.
test system: UACC-257; assay: NCI tumour cell line growth inhibition, 48 h
Active and inactive are the calls of the source. Cut-off read from the data, not from the text of the source: active = GI50 up to about 1.1 µM and inactive = higher.

Below, 5 compounds whose answers are already recorded.
CC1(C)CO[P@@](=S)(c2ccccn2)O[C@@H]1c1ccccc1 ... > 100 µM (inactive)
O=C1/C(=C\c2ccco2)Oc2ccccc21 ... > 100 µM (inactive)
CCOC(=O)C1([Se]c2ccccc2)CCCC1=O (stereo not given) ... 43.7 µM (inactive)
Nc1nc2c(c(=O)[nH]1)C(c1ccccc1)CC(=O)N2 (stereo not given) ... > 100 µM (inactive)
O=c1[nH]nc(Nc2ccccc2)c2nnn(Cc3ccccc3)c12 ... > 100 µM (inactive)

Entry O=C(O)C1C(C(=O)O)C(C(=O)O)C1C(=O)O (stereo not given) , UACC-257 data, GI50 value: > 100 µM (inactive)

Entry `O=c1c(C(c2cc(OCc3ccccc3)cc(OCc3ccccc3)c2)c2c(O)oc3ccccc3c2=O)c(O)oc2ccccc12` , UACC-257 data, GI50 value: 13 µM (inactive)

Entry `COc1cccc(/C=C2\N=C(c3ccccc3)OC2=O)c1` , UACC-257 data, GI50 value: > 100 µM (inactive)

Entry `O=C1C(=O)N(c2cc(Cl)ccc2Cl)C(=O)C(=O)C1c1nc2ccccc2s1` , UACC-257 data, GI50 value: 98.2 µM (inactive)

Entry `Cc1ccc(/N=c2/oc3c(ccc4ccccc43)nc2Nc2ccc(C)cc2)cc1` , UACC-257 data, GI50 value: > 100 µM (inactive)

Entry [O-][S+]1CC[S+]([O-])CC[S+]([O-])CC1 (stereo not given) , UACC-257 data, GI50 value: > 100 µM (inactive)

Entry `CC(C)(C)C(=O)/C=C/c1cccc(Oc2ccccc2)c1` , UACC-257 data, GI50 value: 14 µM (inactive)

Entry `CN(/N=C\c1ccc2ccccc2c1)C1=NCCCCN1` , UACC-257 data, GI50 value: 16.4 µM (inactive)

Entry `CC(O)(Cc1ccccc1C#N)Cc1ccccc1C#N` , UACC-257 data, GI50 value: 89.7 µM (inactive)

Entry `O=c1[nH]nc(NCc2ccccc2)c2nnn(Cc3ccccc3)c12` , UACC-257 data, GI50 value: > 100 µM (inactive)

Entry `Cc1ccccc1/C=C/C(=O)c1ccccc1` , UACC-257 data, GI50 value: 22.5 µM (inactive)

Entry COC(=O)CC(c1ccccc1)C1(c2ccccc2)SCCS1 (stereo not given) , UACC-257 data, GI50 value: > 290 µM (inactive)

Entry `CCOC(=O)c1c(-c2ccc(OC)cc2)ccn1C` , UACC-257 data, GI50 value: > 10 µM (inactive)

Entry `CCC/C(Cl)=N\OC(=O)Nc1cccc(C(F)(F)F)c1` , UACC-257 data, GI50 value: 17.5 µM (inactive)

Entry `N#C/C(=C/c1ccc2c(c1)OCO2)C(=O)c1ccccc1` , UACC-257 data, GI50 value: > 100 µM (inactive)
